# TARGET ENTITY: T1, recombinant human domain 1-3His6 of the cation-independent mannose-6-phosphate receptor (human, UniProt P11717 41-467)
# T1 construct: Biotinylated (NHS-PEG4-biotin) for BLI; Glycosylated; also called hDom1-3His6; hCI-M6PRD1-D3
# TEST SUMMARY: BLI exp 1, dissoc pH 7
Listing of recorded kon by entry.
// units = M⁻¹ s⁻¹; emit number, no label

Reference set (3 entries):
anti-CI-M6PR VHH2 (VHH, His6-tagged; made in Pichia pastoris) VHH: QVQLQESGGGLVQPGGSLRLSCVFSGRTFMSYDVGWFRQAPGKERELLSSITSSSSSPYYAESVKGRFAVSRDGAKKTVYLRMNSLEPEDTAVYYCAARENWRNDWQYWGQTQVTVSS
665000
anti-CI-M6PR VHH7 (VHH, His6-tagged (Pichia pastoris)) VHH: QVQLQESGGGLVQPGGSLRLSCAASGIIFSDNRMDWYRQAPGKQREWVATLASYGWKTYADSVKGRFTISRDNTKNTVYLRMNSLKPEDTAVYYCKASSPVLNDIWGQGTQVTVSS
864000
anti-CI-M6PR VHH8 (VHH, His6-tagged (Pichia pastoris)) VHH: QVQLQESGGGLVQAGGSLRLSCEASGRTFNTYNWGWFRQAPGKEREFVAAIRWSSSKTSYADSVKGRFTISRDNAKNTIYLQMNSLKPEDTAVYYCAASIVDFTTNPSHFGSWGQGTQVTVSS
570000

Query anti-CI-M6PR VHH5 (VHH, His6-tagged; made in Pichia pastoris, later also in E. coli WK6) VHH: QVQLQESGGGLVQAGGSLKLSCAAAGRTFSRLAMGWFRQAPGKEREFVAAISENGDSIHYSDSVKGRFAVSRDNAKNTVYLQMNSLKPEDTAIYYCAADRAAYYCSGSGCYPSRAPAAASYDYWGQGTQVTVSS yields kon of 1.19e+06
